Test system: Rattus norvegicus
experimental_protocol: Oral bioavailability in rat at 3/10 mg/kg
Assay type: ADME, organism-based
measurement_setup: in vivo
For each entry below, report its F value.
Please answer using the number first and the unit second.

The recorded F for `O=S(=O)(c1cc(Cl)c(O)c2ncccc12)C1CCCC1` is 37%

The recorded F for `O=S(=O)(c1ccc(F)cc1)c1cc(Cl)c(O)c2ncccc12` is 23%

The recorded F for `O=S(=O)(c1cc(F)c(O)c2ncccc12)C1CCCC1` is 32%

The recorded F for `O=S(=O)(c1ccc(O)c2ncccc12)C1CCCC1` is 24%

The recorded F for `Cc1ccc(S(=O)(=O)c2cc(F)c(O)c3ncccc23)cc1` is 34%

The recorded F for `O=S(=O)(c1cc(Cl)c(O)c2ncccc12)N1CCCC1` is 33%

The recorded F for `O=S(=O)(c1ccc(C(F)(F)F)cc1)c1cc(F)c(O)c2ncccc12` is 66%

The recorded F for `Cc1ccc(S(=O)(=O)c2cc(Cl)c(O)c3ncccc23)cc1` is 45%

The recorded F for `O=S(=O)(c1cc(F)c(O)c2ncccc12)N1CCCC1` is 73%

The recorded F for `O=S(=O)(c1ccc(F)cc1)c1cc(F)c(O)c2ncccc12` is 100%

====

experimental_protocol: Ratio of drug level in CSF of Sprague-Dawley rat to unbound brain concentration in Sprague-Dawley rat at 10 mg/kg, po after 4 hrs by ES-UPLC analysis
Format: ADME, organism-based
measurement_setup: in vivo
For each entry below, report its Ratio value.
Returns: the value as a bare number; no unit string appended.

The recorded Ratio for `O=S(=O)(c1cc(F)c(O)c2ncccc12)N1CCCC1` is 4.4

The recorded Ratio for `O=S(=O)(c1cc(F)c(O)c2ncccc12)C1CCCC1` is 25

The recorded Ratio for `O=S(=O)(c1cc(Cl)c(O)c2ncccc12)C1CCCC1` is 64

The recorded Ratio for `O=S(=O)(c1ccc(F)cc1)c1cc(F)c(O)c2ncccc12` is 16

====

For each entry below, report its Ratio value.
experimental_protocol: Ratio of drug level in CSF of Sprague-Dawley rat to unbound plasma concentration in Sprague-Dawley rat at 10 mg/kg, po after 4 hrs by ES-UPLC analysis
Format: ADME, organism-based
measurement_setup: in vivo

The recorded Ratio for `O=S(=O)(c1cc(F)c(O)c2ncccc12)C1CCCC1` is 16.5

The recorded Ratio for `O=S(=O)(c1cc(Cl)c(O)c2ncccc12)C1CCCC1` is 11

The recorded Ratio for `O=S(=O)(c1cc(F)c(O)c2ncccc12)N1CCCC1` is 6.8

The recorded Ratio for `O=S(=O)(c1ccc(F)cc1)c1cc(F)c(O)c2ncccc12` is 2.6

====

experimental_protocol: Drug uptake in brain of C57BL/6J mouse at 10 mg/kg, ip measured at 1 hr post dose
Type: ADME, organism-based
measurement_setup: C57BL/6J, brain, read-out: Drug uptake
For each entry below, report its log10 concentration at 1 h value.
Please keep in mind that the values are log10 of concentration at 1 h expressed in ng/g.

The recorded log10 concentration at 1 h for `O=S(=O)(c1ccc(F)cc1)c1cc(F)c(O)c2ncccc12` is 2.72

The recorded log10 concentration at 1 h for `O=S(=O)(c1cc(F)c(O)c2ncccc12)C1CCCC1` is 3.28

The recorded log10 concentration at 1 h for `O=S(=O)(c1ccc(O)c2ncccc12)N1CCCC1` is 1.02

The recorded log10 concentration at 1 h for `Cc1ccc(S(=O)(=O)c2cc(F)c(O)c3ncccc23)cc1` is 2.71

The recorded log10 concentration at 1 h for `O=S(=O)(c1ccc(F)cc1)c1cc(Cl)c(O)c2ncccc12` is 3.75

The recorded log10 concentration at 1 h for `O=S(=O)(c1cc(F)c(O)c2ncccc12)N1CCCC1` is 2.04

The recorded log10 concentration at 1 h for `O=S(=O)(c1cc(Cl)c(O)c2ncccc12)N1CCCC1` is 3.06

The recorded log10 concentration at 1 h for `Cc1ccc(S(=O)(=O)c2cc(Cl)c(O)c3ncccc23)cc1` is 3.23

The recorded log10 concentration at 1 h for `CCS(=O)(=O)c1ccc(O)c2ncccc12` is 1.04

The recorded log10 concentration at 1 h for `O=S(=O)(c1cc(Cl)c(O)c2ncccc12)C1CCCC1` is 3.45

The recorded log10 concentration at 1 h for `O=S(=O)(c1ccc(C(F)(F)F)cc1)c1cc(F)c(O)c2ncccc12` is 3.04

The recorded log10 concentration at 1 h for `Cc1cc(S(=O)(=O)N2CCCC2)c2cccnc2c1O` is 1.74

The recorded log10 concentration at 1 h for O=S(=O)(c1ccc(O)c2ncccc12)N1CCCC1Cc1ccccc1 (stereo not drawn) is 2.04

====

tested_system: Catechol O-methyltransferase (Homo sapiens, UniProt P21964)
Sequence (P21964 whole entry): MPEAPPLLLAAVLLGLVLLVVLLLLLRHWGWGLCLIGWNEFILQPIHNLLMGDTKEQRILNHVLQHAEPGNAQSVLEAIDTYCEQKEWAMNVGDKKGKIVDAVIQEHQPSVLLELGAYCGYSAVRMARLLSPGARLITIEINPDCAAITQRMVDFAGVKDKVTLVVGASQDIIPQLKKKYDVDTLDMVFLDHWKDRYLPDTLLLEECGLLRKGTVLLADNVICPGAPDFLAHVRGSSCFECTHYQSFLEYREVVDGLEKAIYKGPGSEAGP
experimental_protocol: Inhibition of c-terminal hexa-His tagged human MB-COMT expressed in HEK293 cell membrane homogenate using norepinephrine as substrate after 1 hr in presence of SAM by MTase glo methyltransferase assay
Note to self: IC50 under 8 nM means Fulfilled, ties and anything higher get Not fulfilled.

Exercise: IC50 strictly < 8 nM for this molecule? `O=S(=O)(c1cc(Cl)c(O)c2ncccc12)C1CCCC1`
Key: Not fulfilled

Exercise: IC50 strictly < 8 nM for this molecule? `O=S(=O)(c1cc(Cl)c(O)c2ncccc12)N1CCCC1`
Key: Not fulfilled

Exercise: IC50 strictly < 8 nM for this molecule? `Cc1ccc(S(=O)(=O)c2cc(Cl)c(O)c3ncccc23)cc1`
Key: Not fulfilled

Exercise: IC50 strictly < 8 nM for this molecule? O=S(=O)(c1ccc(O)c2ncccc12)N1CCCC1Cc1ccccc1 (stereo unspecified)
Key: Fulfilled

Exercise: IC50 strictly < 8 nM for this molecule? `O=S(=O)(c1ccc(F)cc1)c1cc(Cl)c(O)c2ncccc12`
Key: Not fulfilled

Exercise: IC50 strictly < 8 nM for this molecule? O=S(=O)(c1ccc(O)c2ncccc12)N1CCC(c2ccc(F)cc2)C1 (stereo unspecified)
Key: Fulfilled

Exercise: IC50 strictly < 8 nM for this molecule? `O=S(=O)(c1ccc(F)cc1)c1cc(F)c(O)c2ncccc12`
Key: Fulfilled

Exercise: IC50 strictly < 8 nM for this molecule? `COc1ccc(S(=O)(=O)N2CCCC2)c2cccnc12`
Key: Not fulfilled

Exercise: IC50 strictly < 8 nM for this molecule? `Cc1ccc(C(=O)c2ccc(O)c3ncccc23)cc1`
Key: Not fulfilled

Exercise: IC50 strictly < 8 nM for this molecule? `O=S(=O)(c1ccc(C(F)(F)F)cc1)c1cc(F)c(O)c2ncccc12`
Key: Not fulfilled

====

experimental_protocol: Unbound drug level in brain of Sprague-Dawley rat at 10 mg/kg, po after 4 hrs by ES-UPLC analysis
Assay type: ADME, organism-based
measurement_setup: in vivo
measured_metric: Drug uptake(free) (nM)
Just the number in nM, nothing appended.

The recorded Drug uptake(free) for `O=S(=O)(c1cc(F)c(O)c2ncccc12)N1CCCC1` is 35

The recorded Drug uptake(free) for `O=S(=O)(c1cc(F)c(O)c2ncccc12)C1CCCC1` is 12.8

The recorded Drug uptake(free) for `O=S(=O)(c1cc(Cl)c(O)c2ncccc12)C1CCCC1` is 5.6

The recorded Drug uptake(free) for `O=S(=O)(c1ccc(F)cc1)c1cc(F)c(O)c2ncccc12` is 7.7

====

For each entry below, report its Activity value.
System: Rattus norvegicus
experimental_protocol: In vivo inhibition of COMT in Sprague-Dawley rat assessed as HVA levels in CSF at 10 mg/kg, po measured at 4 hrs post dose by LC-MS analysis relative to control
Format: functional
Design: scale not given: the % may be the effect or the level left

The recorded Activity for `O=S(=O)(c1cc(F)c(O)c2ncccc12)C1CCCC1` is 66%

The recorded Activity for `O=S(=O)(c1ccc(F)cc1)c1cc(F)c(O)c2ncccc12` is 86%

The recorded Activity for `O=S(=O)(c1cc(Cl)c(O)c2ncccc12)C1CCCC1` is 97%

The recorded Activity for `O=S(=O)(c1cc(F)c(O)c2ncccc12)N1CCCC1` is 72%

====

tested_system: Catechol O-methyltransferase (Rattus norvegicus, UniProt P22734)
Sequence (P22734 whole entry): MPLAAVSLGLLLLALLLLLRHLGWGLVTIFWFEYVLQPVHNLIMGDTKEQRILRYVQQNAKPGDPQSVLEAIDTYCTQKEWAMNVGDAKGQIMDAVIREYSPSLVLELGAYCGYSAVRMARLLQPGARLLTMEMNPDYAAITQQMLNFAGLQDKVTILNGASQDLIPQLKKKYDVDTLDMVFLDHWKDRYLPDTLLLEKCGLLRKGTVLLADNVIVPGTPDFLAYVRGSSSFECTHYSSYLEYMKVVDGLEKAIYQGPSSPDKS
experimental_protocol: Inhibition of c-terminal hexa-His tagged rat S-COMT expressed in HEK293-6E cell membrane homogenate using 7,8-dihydroxy-4-methylcoumarin as substrate after 1 hr in presence of SAM by MTase glo methyltransferase assay
For each entry below, report its IC50 value.
Just the number in µM, nothing appended.

The recorded IC50 for `O=S(=O)(c1cc(F)c(O)c2ncccc12)N1CCCC1` is 3.98

The recorded IC50 for `O=S(=O)(c1cc(F)c(O)c2ncccc12)C1CCCC1` is 7.94
